Listed here: items and their measured EC50.
# measured-on: T1, recombinant alipidated human ApoE3 (human, UniProt P02649 19-317)
# T1 construct: mature; full length recombinant protein made in E. coli or bought
# method-description: direct ELISA on coated recombinant alipidated ApoE (0.5 ug/ml)
measured-attribute: EC50

• HJ1518 (antibody, V domains shown, murine monoclonal antibody from hybridoma) VH: QVQLQQSGPELVKPGASVKISCKASGYTFSDYYINWVKQRPGQGLEWIGWIFPGSGSSYYNEKFKGKATLTVDKSSRTAYMLLSSLTSEDSAVYFCARYYGSSPFAYWGQGTLVTVST VL: DVLMTQSPLSLPVSLGDQASISCRSSQSIVHRNGNTYLEWYLQKPGQSPKLLIYKVSNRFSGVPDRFSGSGSGTDFTLKISRVEAEDLGVYYCFQGSHVPYTFGGGTKLEIRR = 0.258 nM
• HJ159 (antibody, V domains shown, murine monoclonal antibody from hybridoma) VH: QVQLQQSGPDLVKPGASVKISCKASGYTFIDYYINWAKQRPGQGLEWIGWIFPGSGSTYYNEKFKGKATLTVDKSSSTAYMFLSSLTSEDSAVFFCARYYGSSPFAYWGQGTLVTVSA VL: DVLMTQTPLSLPVSLGDQASISCRSSQNIVYSNGNTYLEWYLQKPGQSPKLLIYKVSNRFSGVPDRFSGSGSGTYFTLKISRVEAEDLGIYYCFQGSHVPYTFGGGTKLEIKR = 1.9 nM
• HJ1514 (antibody, V domains shown, murine monoclonal antibody from hybridoma) VH: EVNLEESGGGLVQPGGSMKLSCAASGFTFSDAWMDWVRQSPEKGLEWVAEIRNKADNHATYYAESVKGRFTISRNDSKSSVYLQMNSLRTEDTGIYYCVLWDYWGQGTTLTVSS VL: DIVMSQSPSSLAVSAGEKVTMTCKSSQSLLNSRTRKNFLTWYRQKPGQSPKPLIYWASSRESGVPDRFAGSGSGTDFTLTISSVQAEDLAVYYCKQSYNLPWTFGGGTKLEIKR = 0.23 nM
• HJ1531 (antibody, V domains shown, murine monoclonal antibody from hybridoma) VH: EVQFVESGGGLVQPKGSLKLSCAASGFSFNIYAMNWVRQAPGKGLEWVARIRSKSNDYATFYADSVKDRFTISRDDSESMLYLQMNNLKIEDTAMYYCVSPYDGALAYWGQGTSVTVSS VL: DIQMNQSPSSLFASLGDTITITCHASQNINVWLSWYQQKPGNIPKLLIYKASNLHTGVSSRFSGSGSGTDFTLTINNLQPEDIATYYCQQGQSYPLTFGAGTKLELKR = 0.05 nM
• HJ153 (antibody, V domains shown, murine monoclonal antibody from hybridoma; also called HJ153B (biotinylated)) VH: QVQLQQPGAELVKPGASVKLSCKASGYTFTSYWMHWVKQRPGRGLEWIGEIDPSDGFTYNNQNFKDKSTLTVDRSSGTAYLQLSSLTSEDSAVYYCAGSLGRIGLAYWGHGTLVTVSA VL: QIVLTQSPAIMSASPGEKVTISCSASSSVTYMYWYQQKPGASPKSWIYRTSNLASGVPARFSGSGSGTSYSLTISSMEAEDAATYYCQQFQSYPLTFGAGTKLELKR = 0.02 nM
• HJ154 (antibody, V domains shown, murine monoclonal antibody from hybridoma; also called HJ154B (biotinylated)) VH: QVQLQQPGTEFVMSGASVMLSCKASGYIFTNYWLHWVKQRPGHGLEWIGEIDPSDSYSICNDNFKGKSTLTVDKSSSTAYMQLSSLTSEDSAVYYCAGSLGRVGLAYWGQGTLVTVST VL: QIVLTQSPAIMSASPGEKVTMSCSASSSVSNMYWYQQKPGSSPKSWIYRTSNLASGVPARFSGSGSGTSYSLTISNMEAEDAATYYCQHYQNYPLTFGAGTKLELKR = 0.24 nM
• HJ1536 (antibody, V domains shown, murine monoclonal antibody from hybridoma) VH: EVQFVESGGGLVQPKGSLKLSCEVSGFSFNTYAMNWVRQAPGKGLEWVARIRNKTNNYATFYADSVKDRFTISRDDSKNTLYLQMNNLKAEDTAMYFCASPYDGSFAYWGQGTLVTVSA VL: DIQMNQSPSSLSASLGDTITITCHASQNINIWLSWYQQKPGNIPKLLIYKASNLHTGVPSRFSGSGSGTGFTLTISSLQPEDIATYYCQQGHSYPLTFGGGTKLEIKR = 0.1 nM
• HJ156 (antibody, V domains shown, murine monoclonal antibody from hybridoma; also called HJ156B (biotinylated)) VH: QVQLQQSGPELVKPGASVKISCKASGYIFTDYYINWVKRRPGQGLEWIGWIFPGSGVSYYNEQFKGKATLTVDKPSNTAYIFLSRLTSEDSAVYFCARYYSSSPFAYWGQGTLVTVSA VL: DVLMTQTPLSLPVSLGDQASISCRSSQNIIHSNGNTYLEWFLQRPGQSPELLIYKVSNRFSGVPDRFSGSGSGTDFTLKISRVEAEDLGVYYCFQGSHVPYTFGGGTKLEIKR = 1.69 nM
• HJ158 (antibody, V domains shown, murine monoclonal antibody from hybridoma) VH: EVQLMESGGDLVKPGGSLELSCTVSGFTFNNYAMSWIRQTPEKRLEWVATISDGGTNTYFPDNVKGRFTISRDNAKSNLYLQMSHLQSEDTAMYYCAREGRGTWFAYWGQGTLVTVSA VL: DVVMTQTPLSLPVSLGDQASISCRSSQSLVHINGNTYLHWSLQKPGQSPKLLIYKVSNRFSGVPDRFSGSGSGTDFTLKISRVEAEDLGIYFCSQNTHLPLTFGAGTKLELKR = 0.09 nM
• HJ152 (antibody, V domains shown, murine monoclonal antibody from hybridoma; also called HJ152B (biotinylated)) VH: EVKLEESGGGLVQPGGSMKLSCAASGFSFSDAWMDWVRQSPEKGLEWVAEIRNKADNHATFYAESVKGRFTISRDDSKSSVYLQMNSLRAEDSGIYYCLLWDYWGQGTTLTVSS VL: DIVMSQSPSSLAVSAGEKVTMSCKSSQSLLNSRTRKHFLAWYQQKPGQSPKVLIYWASSRESGVPDRFTGSGSGTDFTLTISSVQAEDLAVYYCKQSCNLPWTFGGGTKLEIKR = 0.13 nM
• HJ1526 (antibody, V domains shown, murine monoclonal antibody from hybridoma) VH: QVQLQQPGTALVKPGASVKLSCKSSGYTFTDYWVHWVKQRPGQGLEWIGNINPRNGGINYNENFKGKAILTVDRSFSIAYMQLNSLTSEDSAVYYCARPGATVVHRTPWFAHWGQGTLVTVSA VL: EIVLTQSPALMAASPGEKVTITCSVSSSISSSNLHWFQQKSETSPKPWIFGTSYLASGVPVRFSGSGSGTSYSLTISSMEAEDAATYYCQQWNSYPLTFGAGTKLELR = 0.05 nM
